Tested on: Puccinia recondita
method_summary: Fungicidal activity against Wheat Leaf Rust (WLR) disease
Format: in vivo
condition_parameters: Wheat Leaf Rust; concentration 2 ppm
quantity: WLR (Fungicidal Activities, C.V.) (%)
One number for each entry, in %.

| compound | val |
| --- | --- |
| CON=C(C(=O)OC)c1ccccc1CON=C(C)c1cccc(OC(F)=Cc2ccc(C)c(C)c2)c1 [Compound 67] | 99 |
| CNC(=O)C(=NOC)c1ccccc1CON=C(C)c1cccc(OC(F)=Cc2ccc(F)cc2)c1 [Compound 82] | 100 |
| COC=C(C(=O)OC)c1ccccc1CON=Cc1cccc(OC(F)=Cc2ccc(F)cc2)c1 [Compound 12] | 100 |
| CNC(=O)C(=NOC)c1ccccc1CON=C(C)c1cccc(OC(F)=Cc2cccc(OC)c2)c1 [Compound 80] | 96 |
| COC=C(C(=O)OC)c1ccccc1CON=Cc1cccc(OC(F)=C(c2cccc(Cl)c2)C(F)(F)F)c1 [Compound 116] | 53 |
| CON=C(C(=O)OC)c1ccccc1CON=Cc1cccc(OC(F)=Cc2ccc3c(c2)OCO3)c1 [Compound 29] | 96 |
| CON=C(C(=O)OC)c1ccccc1CON=Cc1cccc(OC(F)=Cc2ccccc2)c1 [Compound 24] | 95 |
| CO/C=C(/C(=O)OC)c1ccccc1CON=Cc1cccc(OC(F)=Cc2ccccc2)c1 [Compound 1] | 96 |
| COC=C(C(=O)OC)c1ccccc1CON=C(C)c1cccc(OC(F)=C(c2cccc(OC)c2)C(F)(F)F)c1 [Compound 157] | 98 |
| CNC(=O)C(=NOC)c1ccccc1CON=Cc1cccc(OC(F)=Cc2ccc3c(c2)OCO3)c1 [Compound 39] | 0 |

Please state WLR (Fungicidal Activities, C.V.) for every compound in the list that follows.
1. CON=C(C(=O)OC)c1ccccc1CON=C(C)c1cccc(OC(F)=Cc2ccc(OC)cc2)c1 [Compound 72]
2. COC=C(C(=O)OC)c1ccccc1CON=C(C)c1cccc(OC(F)=C(c2ccc(OC)cc2)C(F)(F)F)c1 [Compound 158]
3. CNC(=O)C(=NOC)c1ccccc1CON=Cc1cccc(OC(F)=Cc2cccc(C)c2)c1 [Compound 31]

[98, 91, 83]
